# MEASUREMENT TARGET: Small conductance calcium-activated potassium channel protein 2 (Rattus norvegicus, UniProt P70604)
# Sequence (P70604 whole entry): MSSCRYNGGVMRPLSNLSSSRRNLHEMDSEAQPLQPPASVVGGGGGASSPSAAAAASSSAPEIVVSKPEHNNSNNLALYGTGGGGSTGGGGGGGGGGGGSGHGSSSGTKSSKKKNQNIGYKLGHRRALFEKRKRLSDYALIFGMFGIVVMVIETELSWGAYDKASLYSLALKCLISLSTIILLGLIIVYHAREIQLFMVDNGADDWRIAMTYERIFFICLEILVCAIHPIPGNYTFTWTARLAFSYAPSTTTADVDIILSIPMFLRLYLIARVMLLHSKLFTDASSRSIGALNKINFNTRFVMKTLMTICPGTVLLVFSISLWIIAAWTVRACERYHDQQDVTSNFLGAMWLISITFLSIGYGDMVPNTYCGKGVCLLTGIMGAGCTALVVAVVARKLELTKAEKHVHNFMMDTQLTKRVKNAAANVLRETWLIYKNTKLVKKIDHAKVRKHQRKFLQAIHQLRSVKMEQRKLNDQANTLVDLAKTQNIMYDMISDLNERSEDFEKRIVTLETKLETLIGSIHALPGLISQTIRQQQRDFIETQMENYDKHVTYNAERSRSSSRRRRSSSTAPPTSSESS
# EXPERIMENTAL PROTOCOL: Potentiation of rat KCa2.2a expressed in HEK293 cells at -90 mV holding potential measured at 1 to 2 days by patch clamp electrophysiology
MEASURED QUANTITY: EC50 (µM)

Cc1cc(NC2CCCCC2)nc(-n2nc(C)cc2C)n1 : 7.48

I. Cc1cc(Nc2cc(Cl)ccc2F)nc(-n2nc(C)cc2C)n1
II. Cc1cc(Nc2ccc(C(F)(F)F)cc2)nc(-n2nc(C)cc2C)n1
Task item: Endpoint returns whichever of I and II has the numerically higher EC50. Lab log: write the label of the selected item as the result.
Reply: II

1. Cc1cc(Nc2cc(F)ccc2F)nc(-n2nc(C)cc2C)n1
2. Cc1cc(Nc2cc(F)ccc2Cl)nc(-n2nc(C)cc2C)n1
3. Cc1cc(C)n(-c2nc(N)cc(Nc3ccc(F)c(Cl)c3)n2)n1
Task item: Order these by EC50, descending, and give the full ranking. # respond with the labels, arranged in the requested order
Reply: 3, 2, 1

A. Cc1cc(Nc2ccc(F)c(Cl)c2)nc(-c2coc(C)n2)n1
B. Cc1cc(Nc2ccc(Cl)cc2F)nc(-n2nc(C)cc2C)n1
C. Cc1cc(Nc2ccc(F)c(Cl)c2)nc(-n2nc(C)cc2C)n1
D. Cc1cc(Nc2cc(Cl)ccc2F)nc(-c2coc(C)n2)n1
E. CO[C@H]1CC[C@@H](Nc2cc(C)nc(-n3nc(C)cc3C)n2)CC1
Task item: Sort these compounds on EC50 so the largest reading comes first. Answer format: list of labels, ordered as asked.
Reply: E, D, A, B, C
(E: 49.7 µM, D: 13.8 µM, A: 3.59 µM, B: 1.99 µM, C: 0.99 µM)

A. Cc1cc(Nc2ccc(C(F)(F)F)c(Cl)c2)nc(-n2nc(C)cc2C)n1
B. Cc1cc(Nc2cccc(F)c2F)nc(-n2nc(C)cc2C)n1
C. Cc1cn(-c2nc(C)cc(Nc3ccc(F)c(Cl)c3)n2)cn1
Task item: Given 3 compounds, produce a descending ranking by EC50. Reply: labels, ordered per the request.
Reply: C, B, A

Data origin, for the record: ChEMBL document CHEMBL5038638
